Reported pIC50 by item:
- System: mouse bone marrow-derived macrophages
- assay.explanation: Cell proliferation assay (WST-8), mouse bone marrow-derived macrophages
- Type: cell-based
- stated.conditions: Mus musculus, Macrophage; means ± range (n = 2) or standard deviation (n > 2); DMSO less than 1%
pIC50: −log10 of the molar value.
recorded.endpoint: pIC50

>>> reported("O=c1cc(-c2ccccc2)oc2cc(O)cc(O)c12")
4.24
>>> reported("C/C1=C\\CC(C)(C)/C=C/C(=O)/C(C)=C/CC1")
4.49
>>> reported("C[C@H]1[C@H](C)CC[C@]2(C(=O)O)CC[C@]3(C)C(=CC[C@@H]4[C@@]5(C)CC[C@H](O)C(C)(C)[C@@H]5CC[C@]43C)[C@H]12")
4.79
>>> reported("O=C(/C=C/c1ccccc1)c1ccccc1")
3.98
>>> reported("O=c1c(-c2ccc(O)cc2)coc2cc(O)ccc12")
4.19
>>> reported("O=c1cc(-c2ccccc2)oc2ccccc12")
3.74
>>> reported("O=c1c(-c2ccccc2)coc2ccccc12")
3.98
>>> reported("COc1cc(/C=C/C(=O)CC(=O)/C=C/c2ccc(O)c(OC)c2)ccc1O")
4.65
>>> reported("O=c1c(O)c(-c2ccc(O)c(O)c2)oc2cc(O)cc(O)c12")
3.90
>>> reported("CC(C)c1cc2c(c(O)c1O)[C@@]13CCCC(C)(C)[C@@H]1C[C@@H]2OC3=O")
4.20
>>> reported("O=c1c(-c2ccc(O)cc2)coc2cc(O)cc(O)c12")
4.54
>>> reported("Oc1cc(O)c2c(c1)O[C@H](c1cc(O)c(O)c(O)c1)[C@H](O)C2 [Epigallocatechin, epigallocatechin]")
3.80
>>> reported("Oc1ccc(/C=C/c2cc(O)cc(O)c2)cc1")
4.11
>>> reported("C[C@H]1[C@H](C)CC[C@]2(C(=O)O)CC[C@]3(C)C(=CC[C@@H]4[C@@]5(C)C[C@@H](O)[C@H](O)C(C)(C)[C@@H]5CC[C@]43C)[C@H]12")
4.71
>>> reported("O=P(O)(O)C(Cl)(Cl)P(=O)(O)O [Clodronate, clodronate, reference compound]")
4.59
>>> reported("O=c1cc(-c2ccc(O)cc2)oc2cc(O)cc(O)c12")
4.15

---

- System: THP-1 (a human monocytic leukemia cell line)
- assay.explanation: Cell proliferation assay (WST-8), THP-1
- Assay type: cell-based
- stated.conditions: means ± range (n = 2) or standard deviation (n > 2); DMSO less than 1%; listed as curcumin
pIC50: −log10 of the molar value.
recorded.endpoint: pIC50

>>> reported("COc1cc(/C=C/C(=O)CC(=O)/C=C/c2ccc(O)c(OC)c2)ccc1O")
"> 4.52"

// provenance: paper PMC4567266
